Cited source: patent US9872514B2

test system: bitter taste of an aqueous solution of KCl; assay: Sip and spit bitterness rating of aqueous KCl test solutions; type: in vivo, humans; details: Homo sapiens; aqueous KCl 4.85 g/L, 1% EtOH; bitterness scored 0-15 vs KCl standard; dash = none of the tested conc.; read-out: Conc. Where Decrease in Bitter Taste Was Discerned

[
  {
    "Molecule": "Oc1cc(O)c2c(c1)O[C@H](c1ccc(O)c(O)c1)[C@@H](O)C2",
    "minimal effective concentration (µg/mL)": 10
  },
  {
    "Molecule": "C=C1CC[C@H]2O[C@]2(C)CC[C@@H]2[C@@H]1CC2(C)C",
    "minimal effective concentration (µg/mL)": 40
  },
  {
    "Molecule": "O=c1cc(-c2ccccc2)oc2cc(O)ccc12",
    "minimal effective concentration (µg/mL)": 1
  },
  {
    "Molecule": "CC1(C)[C@H]2CC[C@H](CO)[C@@H]1C2",
    "minimal effective concentration (µg/mL)": 1
  },
  {
    "Molecule": "CC(=O)Oc1c(C)c(C)c2c(c1C)CCC(C)(CCCC(C)CCCC(C)CCCC(C)C)O2 (centres unmarked)",
    "minimal effective concentration (µg/mL)": 1
  },
  {
    "Molecule": "CC(=O)OC1C2(C)CCC(C2)C1(C)C (centres unmarked)",
    "minimal effective concentration (µg/mL)": 10
  },
  {
    "Molecule": "CCOC(=O)c1ccc(O)cc1",
    "minimal effective concentration (µg/mL)": 10
  },
  {
    "Molecule": "CC(=O)OC/C=C(\\C)CCC=C(C)C",
    "minimal effective concentration (µg/mL)": 10
  },
  {
    "Molecule": "CC(C)=CCCC(C)CC=O (centres unmarked)",
    "minimal effective concentration (µg/mL)": 1
  },
  {
    "Molecule": "CC(CC=O)CCCC(C)(C)O (centres unmarked)",
    "minimal effective concentration (µg/mL)": 1
  },
  {
    "Molecule": "COc1cc(-c2oc3cc(O)cc(O)c3c(=O)c2O)ccc1O",
    "minimal effective concentration (µg/mL)": 1
  },
  {
    "Molecule": "O=C(O[C@@H]1Cc2c(O)cc(O)cc2O[C@@H]1c1cc(O)c(O)c(O)c1)c1cc(O)c(O)c(O)c1",
    "minimal effective concentration (µg/mL)": 1
  },
  {
    "Molecule": "Cc1cc(O)cc2c1O[C@](C)(CCC[C@H](C)CCC[C@H](C)CCCC(C)C)CC2",
    "minimal effective concentration (µg/mL)": 10
  },
  {
    "Molecule": "O=C1C[C@@H](c2ccccc2)Oc2cc(O)cc(O)c21",
    "minimal effective concentration (µg/mL)": 1
  },
  {
    "Molecule": "CCCCC(=O)OCCC(C)CCC=C(C)C (centres unmarked)",
    "minimal effective concentration (µg/mL)": 10
  },
  {
    "Molecule": "COc1ccc(-c2cc(=O)c3c(OC)c(OC)c(OC)cc3o2)cc1",
    "minimal effective concentration (µg/mL)": 1
  },
  {
    "Molecule": "O=C(/C=C/C=C/c1ccc2c(c1)OCO2)N1CCCCC1",
    "minimal effective concentration (µg/mL)": 1
  },
  {
    "Molecule": "CC(C)=CCCC(C)CCO (centres unmarked)",
    "minimal effective concentration (µg/mL)": 10
  },
  {
    "Molecule": "CC(C)=CCC/C(C)=C/COC(=O)CC(C)C",
    "minimal effective concentration (µg/mL)": 10
  },
  {
    "Molecule": "CC(=O)OC/C=C(\\C)CCC[C@H](C)CCC[C@H](C)CCCC(C)C",
    "minimal effective concentration (µg/mL)": 10
  }
]

----------
tested on: bitter taste of an aqueous solution of KCl; experiment: Sip and spit bitterness rating of aqueous KCl test solutions; assay type: in vivo, humans; details: Homo sapiens; aqueous KCl 4.85 g/L, 1% EtOH; bitterness scored 0-15 vs KCl standard; dash = none of the tested conc.; read-out: Conc. Where Decrease in Bitter Taste Discerned and p ≦ 0.1
Quantity Measured: minimal effective concentration (µg/mL)

[
  {
    "Molecule": "O=c1c(O)c(-c2ccc(O)c(O)c2)oc2cc(O)cc(O)c12",
    "Value Unit": "µg/mL",
    "Result Value": 10
  },
  {
    "Molecule": "C/C=C/C(=O)C1C(C)=CCCC1(C)C (stereo not drawn)",
    "Value Unit": "µg/mL",
    "Result Value": 10
  },
  {
    "Molecule": "O=C(O)c1ccc(O)cc1",
    "Value Unit": "µg/mL",
    "Result Value": 10
  },
  {
    "Molecule": "CCCCOC(=O)c1ccc(O)cc1",
    "Value Unit": "µg/mL",
    "Result Value": 1
  },
  {
    "Molecule": "CC(C)=CCC/C(C)=C\\COC(=O)CC(C)C",
    "Value Unit": "µg/mL",
    "Result Value": 1
  },
  {
    "Molecule": "COc1cc(-c2oc3cc(O)cc(O)c3c(=O)c2O)ccc1O",
    "Value Unit": "µg/mL",
    "Result Value": 1
  }
]

----------
test system: bitter taste of an aqueous solution of KCl; experiment: Sip and spit bitterness rating of aqueous KCl test solutions; assay type: in vivo, humans; conditions: Homo sapiens; aqueous KCl 4.85 g/L, 1% EtOH; bitterness scored 0-15 vs KCl standard; dash = none of the tested conc.; read-out: Conc. Where Decrease in Bitter Taste Discerned and p ≦ 0.1
The entries below come with measured minimal effective concentration values attached.

[
  {
    "Molecule": "OCc1ccc(O)cc1 [Compound 69]",
    "Value Unit": "µg/mL",
    "minimal effective concentration": 1
  },
  {
    "Molecule": "CC(C)=CCC/C(C)=C\\CO [Compound 31]",
    "Value Unit": "µg/mL",
    "minimal effective concentration": 10
  },
  {
    "Molecule": "CCC(=O)OC/C=C(\\C)CCC=C(C)C [Compound 22]",
    "Value Unit": "µg/mL",
    "minimal effective concentration": 1
  }
]

----------
test system: bitter taste of an aqueous solution of KCl; assay: Sip and spit bitterness rating of aqueous KCl test solutions; type: in vivo, humans; settings: Homo sapiens; aqueous KCl 4.85 g/L, 1% EtOH; bitterness scored 0-15 vs KCl standard; dash = none of the tested conc.; read-out: Conc. Where Decrease in Bitter Taste Was Discerned
Quantity Measured: minimal effective concentration

[
  {
    "Molecule": "CC(C)C(=O)OCc1ccc2c(c1)OCO2 [Compound 117]",
    "Quantity Measured": "minimal effective concentration",
    "Result Value": "10 µg/mL"
  },
  {
    "Molecule": "COC(=O)c1ccccc1OC [Compound 68]",
    "Quantity Measured": "minimal effective concentration",
    "Result Value": "10 µg/mL"
  },
  {
    "Molecule": "CC(=O)OCCC(C)CCC=C(C)C (stereo not drawn) [Compound 9]",
    "Quantity Measured": "minimal effective concentration",
    "Result Value": "10 µg/mL"
  },
  {
    "Molecule": "O=C(O)c1ccc(O)cc1 [Compound 58]",
    "Quantity Measured": "minimal effective concentration",
    "Result Value": "10 µg/mL"
  },
  {
    "Molecule": "CC(=O)Oc1c(C)c(C)c2c(c1C)CC[C@@](C)(CCCC(C)CCCC(C)CCCC(C)C)O2 (stereo partly drawn) [Compound 45]",
    "Quantity Measured": "minimal effective concentration",
    "Result Value": "1 µg/mL"
  },
  {
    "Molecule": "O=C(O)c1ccc(O)cc1O [Compound 59]",
    "Quantity Measured": "minimal effective concentration",
    "Result Value": "1 µg/mL"
  },
  {
    "Molecule": "C/C=C/C(=O)C1=C(C)CCCC1(C)C [Compound 1]",
    "Quantity Measured": "minimal effective concentration",
    "Result Value": "0.1 µg/mL"
  },
  {
    "Molecule": "CC(=O)/C=C/C1C(C)=CCCC1(C)C (stereo not drawn) [Compound 5]",
    "Quantity Measured": "minimal effective concentration",
    "Result Value": "0.1 µg/mL"
  },
  {
    "Molecule": "CC(=O)CC/C=C(\\C)CCC=C(C)C [Compound 29]",
    "Quantity Measured": "minimal effective concentration",
    "Result Value": "1 µg/mL"
  },
  {
    "Molecule": "O=C1CC(C(=O)O)C(C(=O)O)O1 (stereo not drawn) [Compound 133]",
    "Quantity Measured": "minimal effective concentration",
    "Result Value": "2 µg/mL"
  },
  {
    "Molecule": "C[C@@H]1[C@@H](O)C[C@H]2C[C@@H]1C2(C)C [Compound 90]",
    "Quantity Measured": "minimal effective concentration",
    "Result Value": "1 µg/mL"
  },
  {
    "Molecule": "COc1cc(OC)c2c(=O)cc(-c3ccccc3)oc2c1 [Compound 100]",
    "Quantity Measured": "minimal effective concentration",
    "Result Value": "10 µg/mL"
  },
  {
    "Molecule": "O=C(O[C@@H]1Cc2c(O)cc(O)cc2O[C@@H]1c1ccc(O)c(O)c1)c1cc(O)c(O)c(O)c1 [Compound 107]",
    "Quantity Measured": "minimal effective concentration",
    "Result Value": "10 µg/mL"
  },
  {
    "Molecule": "Oc1cc(O)c2c(c1)O[C@@H](c1cc(O)c(O)c(O)c1)[C@H](O)C2 [Compound 106]",
    "Quantity Measured": "minimal effective concentration",
    "Result Value": "1 µg/mL"
  },
  {
    "Molecule": "CC(=O)OCC1=CC[C@@H]2C[C@H]1C2(C)C [Compound 94]",
    "Quantity Measured": "minimal effective concentration",
    "Result Value": "10 µg/mL"
  },
  {
    "Molecule": "COC(=O)c1ccc(O)cc1 [Compound 61]",
    "Quantity Measured": "minimal effective concentration",
    "Result Value": "1 µg/mL"
  },
  {
    "Molecule": "CC(C)=CCCC(C)CCOC=O (stereo not drawn) [Compound 8]",
    "Quantity Measured": "minimal effective concentration",
    "Result Value": "10 µg/mL"
  },
  {
    "Molecule": "CCCOC(=O)c1ccccc1 [Compound 56]",
    "Quantity Measured": "minimal effective concentration",
    "Result Value": "1 µg/mL"
  }
]
